The reported measurements were obtained from ChEMBL document CHEMBL1157356.

- measurement protocol: Tmax in BALB/c mouse at 10 mg/kg, po
- Assay type: ADME, organism-based
- Set-up: dose 10 mg/kg, route oral
- assay context: in vivo

{"compound smiles": "O=C(Nc1ccc(Oc2ccnc3[nH]ccc23)c(F)c1)c1cccn(-c2ccc(F)cc2)c1=O", "result units": "min", "Tmax": 30}

* * *

- assayed target: Cyclin-dependent kinase 2 (Homo sapiens, UniProt P24941)
- measurement protocol: Inhibition of CDK2/cyclin E

{"compound smiles": "O=C(Nc1ccc(Oc2ccnc3[nH]ccc23)c(F)c1)c1cccn(-c2ccc(F)cc2)c1=O", "assayed target": "Cyclin-dependent kinase 2 (Homo sapiens, UniProt P24941)", "IC50": "> 1 µM"}

* * *

- assayed target: Vascular endothelial growth factor receptor 2 (Homo sapiens, UniProt P35968)
- Sequence (P35968 whole entry): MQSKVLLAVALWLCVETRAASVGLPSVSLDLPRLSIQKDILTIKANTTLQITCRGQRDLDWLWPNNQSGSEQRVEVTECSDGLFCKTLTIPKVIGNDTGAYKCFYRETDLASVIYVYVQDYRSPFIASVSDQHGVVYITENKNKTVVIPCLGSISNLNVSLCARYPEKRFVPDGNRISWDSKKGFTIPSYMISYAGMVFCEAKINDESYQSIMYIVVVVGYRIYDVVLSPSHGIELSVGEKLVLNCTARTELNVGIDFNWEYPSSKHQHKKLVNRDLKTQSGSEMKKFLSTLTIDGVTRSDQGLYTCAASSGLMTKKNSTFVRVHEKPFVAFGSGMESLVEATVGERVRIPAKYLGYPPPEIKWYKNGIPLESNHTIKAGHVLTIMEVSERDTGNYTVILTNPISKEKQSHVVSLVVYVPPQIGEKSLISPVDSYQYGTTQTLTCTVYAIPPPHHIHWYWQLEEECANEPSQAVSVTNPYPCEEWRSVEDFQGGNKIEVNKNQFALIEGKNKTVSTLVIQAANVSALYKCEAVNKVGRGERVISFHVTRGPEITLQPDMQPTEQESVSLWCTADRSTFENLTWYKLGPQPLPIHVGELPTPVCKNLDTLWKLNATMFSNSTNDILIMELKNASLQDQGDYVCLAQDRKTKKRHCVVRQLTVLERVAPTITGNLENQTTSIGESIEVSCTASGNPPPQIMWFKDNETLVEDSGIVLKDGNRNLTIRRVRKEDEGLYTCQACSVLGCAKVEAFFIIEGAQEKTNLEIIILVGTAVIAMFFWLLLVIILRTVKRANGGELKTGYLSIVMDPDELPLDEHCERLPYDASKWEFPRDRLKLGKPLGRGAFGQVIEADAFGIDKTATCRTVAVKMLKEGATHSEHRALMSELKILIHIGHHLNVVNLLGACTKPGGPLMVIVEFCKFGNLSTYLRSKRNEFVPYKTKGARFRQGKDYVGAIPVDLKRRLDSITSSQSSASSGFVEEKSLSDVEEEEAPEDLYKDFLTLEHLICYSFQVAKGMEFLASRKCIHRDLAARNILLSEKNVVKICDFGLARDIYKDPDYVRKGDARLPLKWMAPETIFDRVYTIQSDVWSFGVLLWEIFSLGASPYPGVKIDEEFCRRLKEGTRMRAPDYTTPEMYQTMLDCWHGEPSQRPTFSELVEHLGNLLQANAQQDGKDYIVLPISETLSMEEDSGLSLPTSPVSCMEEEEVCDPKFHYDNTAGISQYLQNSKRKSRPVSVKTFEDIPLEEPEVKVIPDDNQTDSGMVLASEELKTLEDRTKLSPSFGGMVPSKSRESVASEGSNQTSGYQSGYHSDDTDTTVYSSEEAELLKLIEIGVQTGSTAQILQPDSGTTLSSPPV
quantity: IC50 (µM)

{"compound smiles": "O=C(Nc1ccc(Oc2ccnc3[nH]ccc23)c(F)c1)c1cccn(-c2ccc(F)cc2)c1=O", "quantity": "IC50", "result units": "µM", "measurement": 0.027}

* * *

- Tested on: NCI-N87
- measurement protocol: Antiproliferative activity against human N87 cells after 72 hrs by MTS assay
- Type: functional, cell-based
- assay context: NCI-N87, 72 h
quantity: IC50

{"compound smiles": "CC(C)CCn1cccc(C(=O)Nc2ccc(Oc3ccnc4[nH]ccc34)c(F)c2)c1=O", "measurement": "> 5 µM"}
{"compound smiles": "O=C(Nc1ccc(Oc2ccnc3[nH]ccc23)c(F)c1)c1cncc(-c2ccc(F)cc2)c1O", "measurement": "1.24 µM"}
{"compound smiles": "O=C(Nc1ccc(Oc2ccnc3[nH]ccc23)c(F)c1)c1cccc(-c2ccccc2)[n+]1[O-]", "measurement": "> 5 µM"}
{"compound smiles": "O=C(Nc1ccc(Oc2ccnc3[nH]ccc23)c(F)c1)c1cccn(-c2ccccn2)c1=O", "measurement": "> 5 µM"}
{"compound smiles": "O=C(Nc1ccc(Oc2ccnc3[nH]ccc23)c(F)c1)c1cccn(-c2ccc(F)cc2)c1=O", "measurement": "> 5 µM"}

* * *

- measurement protocol: Oral bioavailability in BALB/c mouse at 10 mg/kg, po
- Assay type: ADME, organism-based
- assay context: in vivo

{"compound smiles": "O=C(Nc1ccc(Oc2ccnc3[nH]ccc23)c(F)c1)c1cccn(-c2ccc(F)cc2)c1=O", "bioavailability / %": 100}

* * *

- measurement protocol: AUC (0 to 24 hrs) in BALB/c mouse at 5 mg/kg, iv
- Assay type: ADME, organism-based
- Design: time < 24 hr, dose 5 mg/kg, route intravenous
- assay context: plasma

{"compound smiles": "O=C(Nc1ccc(Oc2ccnc3[nH]ccc23)c(F)c1)c1cccn(-c2ccc(F)cc2)c1=O", "result units": "µM·h", "AUC(0-t) at 24 h": 19.8}

* * *

- measurement protocol: Volume of distribution at steady state in BALB/c mouse at 5 mg/kg, iv
- Assay type: ADME, organism-based
- Set-up: dose 5 mg/kg, route intravenous
- assay context: in vivo, read-out: Vdss

{"compound smiles": "O=C(Nc1ccc(Oc2ccnc3[nH]ccc23)c(F)c1)c1cccn(-c2ccc(F)cc2)c1=O", "result units": "L/kg", "Vd": 1.6}

* * *

- measurement protocol: Mean residence time in BALB/c mouse at 5 mg/kg, iv
- Type: ADME, organism-based
- Design: dose 5 mg/kg, route intravenous
- assay context: in vivo

{"compound smiles": "O=C(Nc1ccc(Oc2ccnc3[nH]ccc23)c(F)c1)c1cccn(-c2ccc(F)cc2)c1=O", "result units": "h", "MRT": 3}

* * *

- assayed target: Hepatocyte growth factor receptor (Homo sapiens)
- Sequence (P08581 whole entry): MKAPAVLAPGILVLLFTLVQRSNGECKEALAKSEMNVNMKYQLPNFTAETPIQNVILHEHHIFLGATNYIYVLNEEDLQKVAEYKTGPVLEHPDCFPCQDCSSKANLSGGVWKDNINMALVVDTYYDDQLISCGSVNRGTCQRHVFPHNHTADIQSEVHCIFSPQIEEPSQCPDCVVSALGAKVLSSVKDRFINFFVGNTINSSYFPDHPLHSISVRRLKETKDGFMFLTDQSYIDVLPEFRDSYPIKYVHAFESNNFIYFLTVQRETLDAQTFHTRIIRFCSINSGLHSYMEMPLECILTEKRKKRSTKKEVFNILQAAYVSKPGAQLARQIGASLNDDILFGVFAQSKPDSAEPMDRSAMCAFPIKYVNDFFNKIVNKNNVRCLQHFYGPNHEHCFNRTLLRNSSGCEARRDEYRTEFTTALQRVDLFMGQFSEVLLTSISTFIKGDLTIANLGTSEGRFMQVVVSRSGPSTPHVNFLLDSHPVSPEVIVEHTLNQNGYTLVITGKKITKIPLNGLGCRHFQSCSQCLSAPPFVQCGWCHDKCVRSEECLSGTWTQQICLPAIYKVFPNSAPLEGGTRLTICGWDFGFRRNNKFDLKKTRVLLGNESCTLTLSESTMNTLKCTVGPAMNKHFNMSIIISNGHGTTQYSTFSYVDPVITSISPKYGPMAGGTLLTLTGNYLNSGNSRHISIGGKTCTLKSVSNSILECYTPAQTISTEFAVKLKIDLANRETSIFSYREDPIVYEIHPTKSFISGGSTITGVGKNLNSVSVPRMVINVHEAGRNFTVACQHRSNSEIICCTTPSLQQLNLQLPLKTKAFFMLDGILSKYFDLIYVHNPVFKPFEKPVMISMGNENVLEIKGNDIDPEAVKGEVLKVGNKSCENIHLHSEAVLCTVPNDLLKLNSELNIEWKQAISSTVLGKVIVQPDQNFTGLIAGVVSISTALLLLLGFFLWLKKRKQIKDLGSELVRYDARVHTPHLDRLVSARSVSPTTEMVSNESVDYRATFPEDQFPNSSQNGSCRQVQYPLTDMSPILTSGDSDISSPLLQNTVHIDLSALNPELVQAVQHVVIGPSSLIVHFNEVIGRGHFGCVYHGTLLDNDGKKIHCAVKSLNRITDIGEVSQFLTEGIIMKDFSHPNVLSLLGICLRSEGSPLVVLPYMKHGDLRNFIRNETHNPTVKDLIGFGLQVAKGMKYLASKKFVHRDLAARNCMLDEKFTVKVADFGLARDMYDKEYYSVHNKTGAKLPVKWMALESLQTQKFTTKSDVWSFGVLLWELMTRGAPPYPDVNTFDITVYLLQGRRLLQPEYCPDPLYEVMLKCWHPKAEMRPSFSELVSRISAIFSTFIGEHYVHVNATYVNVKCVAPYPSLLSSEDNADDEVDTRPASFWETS
- measurement protocol: Inhibition of MET
pIC50: −log10 of the molar value.
Threshold rule: pIC50 greater than or equal to 8 is 1; below that, -1.

{"compound smiles": "O=C(Nc1ccc(Oc2ccnc3[nH]ccc23)c(F)c1)c1cncc(-c2ccc(F)cc2)c1O", "category label": 1}
{"compound smiles": "O=C(Nc1ccc(Oc2ccnc3[nH]ccc23)c(F)c1)c1cn(CCO)cc(-c2ccc(F)cc2)c1=O", "category label": 1}
{"compound smiles": "NC(=O)c1ccc(-n2cccc(C(=O)Nc3ccc(Oc4ccnc5[nH]ccc45)c(F)c3)c2=O)cc1", "category label": -1}
{"compound smiles": "CC(C)CCn1cccc(C(=O)Nc2ccc(Oc3ccnc4[nH]ccc34)c(F)c2)c1=O", "category label": -1}
{"compound smiles": "O=C(Nc1ccc(Oc2ccnc3[nH]ccc23)c(F)c1)c1cccc(-c2ccc(F)cc2)[n+]1[O-]", "category label": 1}
{"compound smiles": "O=C(Nc1ccc(Oc2ccnc3[nH]ccc23)c(F)c1)c1cccn(-c2ccccc2)c1=O", "category label": 1}
{"compound smiles": "O=C(Nc1ccc(Oc2ccnc3[nH]ccc23)c(F)c1)c1cocc(-c2ccc(F)cc2)c1=O", "category label": -1}
{"compound smiles": "O=C(Nc1ccc(Oc2ccnc3[nH]ccc23)c(F)c1)c1cn(-c2ccc(Cl)c(F)c2)cc(-c2ccc(F)cc2)c1=O", "category label": 1}
{"compound smiles": "O=C(Nc1ccc(Oc2ccnc3[nH]ccc23)c(F)c1)c1cccn(-c2cccnc2)c1=O", "category label": -1}
{"compound smiles": "O=C(Nc1ccc(Oc2ccnc3[nH]ccc23)c(F)c1)c1cn(C2CC2)cc(-c2ccc(F)cc2)c1=O", "category label": 1}
{"compound smiles": "O=C(Nc1ccc(Oc2ccnc3[nH]ccc23)c(F)c1)c1cccn(C2CC2)c1=O", "category label": -1}
{"compound smiles": "CC(C)(C)n1cccc(C(=O)Nc2ccc(Oc3ccnc4[nH]ccc34)c(F)c2)c1=O", "category label": -1}
{"compound smiles": "COc1ccc(-n2cc(C(=O)Nc3ccc(Oc4ccnc5[nH]ccc45)c(F)c3)c(=O)c(-c3ccc(F)cc3)c2)cc1F", "category label": 1}
{"compound smiles": "Cn1cc(C(=O)Nc2ccc(Oc3ccnc4[nH]ccc34)c(F)c2)c(=O)c(-c2ccc(F)cc2)c1", "category label": 1}
